Numbers sourced from the supplement of paper PMC9170038.

Known apparent KD of K4 kissing-loop reporter of a selection of sequences
system: K4 kissing-loop RNA reporter; test: apparent KD of K4 kissing-loop reporter; higher = weaker reporter binding; conditions: Eterna round: R107; input ligand: arginine 13.2 mM;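 also: bound reporter read as fluorescence of individual clusters on recovered sequencing chips by microscopy, with normalized cluster intensities fitted with a binding model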
Use µM as the unit, but write only the number.

chain	apparent KD of K4 kissing-loop reporter, µM
GCGAAAAGCAAAACGAGUGAUGUUCGAAAACGAGGACCGGUACGGCCGCCACUCGAAAACGUCUGCGUGGGAAACUAUGUAGAUG [SS Tryptophan A - 1]	0.569
ACCAUCAAAGAUGGCCAGGACACCGCUGAUACCAGAGUGAAAACACUCCCUUGGCAGCAGGUGAGUGAUGUUCACAGUCCAUGGA [Omel KL Theo A SS B v2]	0.422

Recorded result, GACUGGAGUGAUGUUCCAUUAACGAUCCUACGAGGACCGGUACGGCCGCCACUCGAAAUGCAGUGAUGUUGCAGCCAGCCGUACU [Exclusion Trptophan A GF 8] , apparent KD of K4 kissing-loop reporter: 0.18
